EXPERIMENT DESCRIPTION: pharmacokinetics in plasma and brain after intraperitoneal injection
Assay type: in vivo
CONDITION PARAMETERS: mouse, 25 mg/kg intraperitoneal, female C57BL/7 mice, read-out: total drug exposure (area under the curve) in brain relative to plasma
PARAMETER: Kp

>>> print(df.to_string())
                                   molecule  parameter  experimental_result
0  CCCC[S+]([O-])c1sc2nc(-c3nccs3)cc(-c3cnc(C)n3C)c2c1N (single isomer, unassigned; (+)) [(+) SW209415]         Kp                 1.56
